- TARGET SYSTEM: T1, cynomolgus monkey CD8A on cyno CD8+ T cells (cynomolgus monkey, UniProt P01732 23-235 (human entry))
- T1 construct: also called cyno T-cells; Cyno CD8alpha
- T1 sequence (P01732 other isoform, or with tags, fused parts or gaps limits assumed): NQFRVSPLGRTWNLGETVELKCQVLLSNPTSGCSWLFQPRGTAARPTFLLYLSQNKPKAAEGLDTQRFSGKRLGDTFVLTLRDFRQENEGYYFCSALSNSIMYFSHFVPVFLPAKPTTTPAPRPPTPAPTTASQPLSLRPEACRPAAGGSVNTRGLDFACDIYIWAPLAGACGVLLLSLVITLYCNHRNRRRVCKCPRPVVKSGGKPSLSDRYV
- ASSAY EXPLANATION: flow cytometry on cyno CD8+ T cells
MEASURED ATTRIBUTE: pEC50
API: returns pEC50 as number; meaning -log10 of concentration in mol/L.

Worked cases, pEC50 given:
CD8S370 (designed binder, P282DR9P1359_G7 with E54C; the entry holds the mutation) LPAPKNLVVSRVTEDSARLSWTAPDAAFDSFAITYIEKEHIEDGEAIVLTVPGSCRSYDLTGLKPGTEYWVPIWGVKGGANSWPLSAIFTT; 7.17
CD8S369 (designed binder, P283AR9P1362_D6 with E54C; the entry holds the mutation) LPAPKNLVVSRVTEDSARLSWAKRPGAFDSFLIQYQESEKVGEAIVLTVPGSCRSYDLTGLKPGTEYTVSIYGVDVKYDIDSRPISSNPLSAIFTT; 7.14
CD8S365 (designed binder, P282ER9P1360_C8 with E54C; the entry holds the mutation) LPAPKNLVVSRVTEDSARLSWTAPDAAFDSFGILYYEPVDSGEAITLPVPGSCRSYDLTGLKPGTEYWVVITGVKGGAPSTPLGTIFTT; 6.91
CD8S368 (designed binder, P282DR9P1359_F5 with E54C; the entry holds the mutation) LPAPKNLVVSRVTEDSARLSWTAPDAAFDSFQIAYPEWPPPGEAIVLTVPGSCRSYDLTGLKPGTEYFVIIQGVKGGVESWPLSAIFTT; 7.15
CD8S367 (designed binder, P282DR9P1359_F7 with E54C; the entry holds the mutation) LPAPKNLVVSRVTEDSARLSWTAPDAAFDSFAIAYPEWPPQGEAIVLTVPGSCRSYDLTGLKPGTEYFVVIYGVKGGSYSAPLSAIFTT; 7.29

# next binder below
Reported pEC50 of CD8S366 (designed binder, P282DR9P1359_C5 with E54C; the entry holds the mutation) LPAPKNLVVSRVTEDSARLSWTAPDAAFDSFWITYPEWPDPGGEAIVLTVPGSCRSYDLTGLKPGTEYFVVIYGVKGGEIYSPLSAIFTT : 7.16

These data points were gathered from patent US20210032312A1.
